# EXPERIMENTAL_PROTOCOL: Intrinsic clearance in CD1 mouse liver microsomes at 1 uM measured up to 30 mins by UPLC-MS/MS method
# Type: ADME, microsome
# TEST_PARAMETERS: 0.5 h
Provide the reported CLH of each item.
Please give a number only; it is taken to be in mL/min/g.

Challenge: Given CC(C)Cc1ccc2ncccc2c1NS(=O)(=O)c1ccc(CCCO[C@H]2C[C@H]3CC[C@@H](C2)N3C)cc1 , state its recorded CLH.
Response given: 2.3

Challenge: Same lookup for CC(C)Cc1ccc2ncccc2c1NS(=O)(=O)c1ccc(CCCCN2CCN3CCC[C@@H]3C2)cc1 , please.
Response given: 8.9

Challenge: Could you do the same for Cn1cc2c(NS(=O)(=O)c3ccc(Br)cc3)cccc2n1 , please?
Response given: 6.3

Challenge: Another compound to check: Cc1ccc2ncccc2c1NS(=O)(=O)c1ccc(Br)cc1
Response given: 3.6

Challenge: Also need CC(C)Cc1ccc2ncccc2c1NS(=O)(=O)c1ccc(CCCCN2CCNCC2)cc1 , thanks.
Response given: 1.3

Challenge: What would you report for CC(C)Cc1ccc2ncccc2c1NS(=O)(=O)c1ccc(CCCO[C@@H]2C[C@H]3CC[C@@H](C2)N3C)cc1 ?
Response given: 1.5

Challenge: Same for CC(C)Cc1ccc2nn(C)cc2c1NS(=O)(=O)c1ccc(CCCCC2CCN(C)CC2)cc1
Response given: 2.9

Challenge: Also check CC(C)Cc1ccc2ncccc2c1NS(=O)(=O)c1ccc(CCCC2CCN(C)CC2)cc1
Response given: 2.6

###

# EXPERIMENTAL_PROTOCOL: Ratio of drug level in NMRI mouse brain to plasma at 0.5 mg/kg, iv after 5 to 30 mins by UPLC/MS/MS analysis
# TEST_PARAMETERS: brain and plasma
MEASURED_ENDPOINT: Kp
Please give the numeric answer without any surrounding text.

Challenge: # lookup: Kp of CC(C)Cc1ccc2nn(C)cc2c1N(C(F)F)S(=O)(=O)c1ccc(CCCCC2CCN(C)CC2)cc1
Response given: 1.9

###

# EXPERIMENTAL_PROTOCOL: Cmax in NMRI mouse at 50 mg/kg, po administered via gavage by UPLC/MS/MS analysis
# Type: ADME, organism-based
# Parameters: dose 50 mg/kg, route oral
# TEST_PARAMETERS: in vivo
MEASURED_ENDPOINT: Cmax
Show the value, then the unit it is measured in.

Challenge: I am curious: what Cmax value has been reported for CC(C)Cc1ccc2nn(C)cc2c1NS(=O)(=O)c1ccc(CCCCC2CCN(C)CC2)cc1 ?
Response given: 11000 ng/mL

###

# System: human NMT
# EXPERIMENTAL_PROTOCOL: Therapeutic index, ratio of IC50 for human NMT to EC50 for bloodstream form of Trypanosoma brucei brucei s427
# Format: toxicity
# TEST_PARAMETERS: read-out: Ratio IC50/EC50
MEASURED_ENDPOINT: selectivity ratio

Challenge: Query (compound): O=S(=O)(Nc1c(N2CCCC2)ccc2ncccc12)c1ccc(Br)cc1 ; field requested: selectivity ratio
Response given: 3.7

Challenge: Would you kindly repeat that for O=S(=O)(Nc1c(C2CCCCC2)ccc2ncccc12)c1ccc(Br)cc1 ?
Response given: > 2.6

Challenge: Queued: COC(=O)c1ccc(N2CCCCCC2)c(NS(=O)(=O)c2ccc(OC)cc2)c1
Response given: 8.3

Challenge: What would you report for Cn1cc2c(NS(=O)(=O)c3ccc(Br)cc3)c(N3CCCC3)ccc2n1 ?
Response given: > 4.1

Challenge: Proceed to O=S(=O)(Nc1c(CC2CCCCC2)ccc2ncccc12)c1ccc(Br)cc1
Response given: > 4.3

Challenge: Then what about the compound Cn1cc2c(NS(=O)(=O)c3ccc(Br)cc3)c(C3CCCCC3)ccc2n1 ?
Response given: > 3.1

Challenge: Then this compound: COC(=O)c1ccc(N2CCCC2)c(NS(=O)(=O)c2ccc(Br)cc2)c1
Response given: > 4.8

Challenge: Let us now turn to COC(=O)c1ccc(N2CCCC2)c(NS(=O)(=O)c2ccc(OC)cc2)c1
Response given: > 6.7

Challenge: Try this compound next: CN1CCC(CCCCc2ccc(S(=O)(=O)Nc3c(N4CCCC4)ccc4ncccc34)cc2)CC1
Response given: 16
